ASSAYED SYSTEM: human 5-HT1A receptor (Homo sapiens (Human))
Sequence (P08908 whole entry): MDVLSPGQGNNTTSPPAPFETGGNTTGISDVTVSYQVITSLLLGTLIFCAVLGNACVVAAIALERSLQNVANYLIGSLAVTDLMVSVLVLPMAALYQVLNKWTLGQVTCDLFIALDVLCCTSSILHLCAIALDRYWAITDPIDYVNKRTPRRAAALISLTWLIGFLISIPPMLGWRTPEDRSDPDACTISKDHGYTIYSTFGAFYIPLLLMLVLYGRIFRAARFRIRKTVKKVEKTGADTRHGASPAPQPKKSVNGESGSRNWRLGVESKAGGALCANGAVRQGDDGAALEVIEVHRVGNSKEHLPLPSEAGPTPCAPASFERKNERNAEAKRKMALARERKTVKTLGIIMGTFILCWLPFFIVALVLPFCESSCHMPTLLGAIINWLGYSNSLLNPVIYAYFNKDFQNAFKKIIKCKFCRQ
ASSAY TEXT: Test 2: agonist activity for human 5-HT1A receptor ([35S]GTPγS binding)
Assay type: biochemical
REPORTED CONDITIONS: agonist activity in the presence of 10 μM of compound, relative to 100 μmol/L 5-HT
Collected Emax at 10 µM values appear next to each entry.
READOUT TYPE: Emax at 10 µM (%)

1) CCc1ccc2c(n1)C(=O)N(CCN1CCC(c3noc4ccccc34)CC1)CC2 [Example 185]    52
2) O=C1c2ncccc2CCC1CCN1CCC(c2noc3ccccc23)CC1 (stereo not drawn) [Example 24]    31
3) O=C1c2ncccc2CCN1CCN1CCN(c2nsc3cc(F)ccc23)CC1 [Example 27]    58
4) Cn1ncc2c1CCC(CCN1CCC(c3noc4ccccc34)CC1)C2=O (stereo not drawn) [Example 28]    94
5) O=C1c2cnc(OC3COC3)cc2CCN1CCN1CCN(c2nsc3ccccc23)CC1 [Example 111]    51
6) Cc1noc2c1C(=O)N(CCN1CCN(c3nsc4ccccc34)CC1)CCC2 [Example 40]    60
